Target: T1, Rnt1p (yeast RNase III) (Saccharomyces cerevisiae, UniProt Q02555 1-471)
T1 sequence: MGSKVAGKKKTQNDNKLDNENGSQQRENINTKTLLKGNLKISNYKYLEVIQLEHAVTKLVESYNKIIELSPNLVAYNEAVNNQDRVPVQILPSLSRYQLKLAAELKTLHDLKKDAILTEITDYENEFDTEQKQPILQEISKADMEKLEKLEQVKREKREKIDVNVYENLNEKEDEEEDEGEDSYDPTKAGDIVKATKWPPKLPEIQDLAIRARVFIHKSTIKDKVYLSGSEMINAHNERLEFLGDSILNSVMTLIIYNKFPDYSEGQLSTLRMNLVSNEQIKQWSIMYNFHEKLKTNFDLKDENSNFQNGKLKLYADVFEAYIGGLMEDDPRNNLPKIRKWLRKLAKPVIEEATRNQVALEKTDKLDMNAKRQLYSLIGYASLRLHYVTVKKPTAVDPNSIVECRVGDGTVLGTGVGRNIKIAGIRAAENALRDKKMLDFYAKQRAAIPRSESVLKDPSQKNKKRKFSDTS
Assay: EMSA; apparent K'd; Protein EMSA as in cited ref 12 (buffer not given): 3 fmol 5'-labeled RNA, Rnt1p 0.25-6 uM; trans reactions with 2 pmol cold target
Settings: protein: recombinant; chain copies: 2; label: 5'-32P; hairpin
parameter: Kd (nM)
API: value field is a number in nM; no unit string.

Q) Fill in: Kd of 3'-Branch (structured_RNA) RNA: GCUUGAAGAGGAUGAGUCCAUCCCCAAAACAUUAGCUUGAAAAAGCUAAUGUUUUGGAAUCUUCAAGAUUAUGG is ___
A) 750
